Values compiled from ChEMBL document CHEMBL4513216.

Tested on: Plasmodium berghei
Assay: Screen against P. berghei liver stage (PbLuc), transformed with Luciferase, at 10uM
Format: functional, HepG2
Details: tested at 10 uM
About 8,600 (12%) of roughly 69,000 compounds showed an effect of 50% or more. The sample holds strong results, similar compounds and a random draw of the others, so the mix is not that of the screen.
Grouping rule (INHIBITION): 1: < 20%; 2: ≥ 20% and < 40%; 3: ≥ 40%

>>> answer_label("CN1CCO[C@@H]2CN(S(=O)(=O)c3ccccc3)C[C@@H]2C1")
2
>>> answer_label("c1cnn(CC2CCCCN2Cc2nc(-c3ccoc3)no2)c1 (configuration not stated)")
2
>>> answer_label("Cc1ccc(N2CCCN(C(=O)c3cccc4c3ccn4C)CC2)nn1")
2
>>> answer_label("N#Cc1cn[nH]c1NCc1cc(Cl)cc(Cl)c1O")
3
>>> answer_label("COc1ccc(CNC(Cc2cccs2)c2nc(C)c(C)s2)cc1OC (configuration not stated)")
2
>>> answer_label("Cc1cccnc1C(Cc1ccsc1)NCc1cnc(N(C)C)nc1 (configuration not stated)")
1
>>> answer_label("O=C(NCc1ccccn1)[C@]12COC[C@H]1CN(Cc1ccccc1F)C2")
1
>>> answer_label("COc1ccc(CN2CCC(c3cc(O)nc(C)n3)C2)c(OC)c1 (configuration not stated)")
1
>>> answer_label("COc1cccc(OC)c1CNC(Cc1ccsc1)c1ccc(C)cn1 (configuration not stated)")
3
>>> answer_label("COc1ccc(CNC(Cc2ccsc2)c2ccc(C)cn2)cc1OC (configuration not stated)")
3
>>> answer_label("N#Cc1cn[nH]c1NCc1cc(Br)ccc1O")
2

====

Test system: Plasmodium berghei
Assay: Screen against P. berghei liver stage (PbLuc), transformed with Luciferase, at 10uM
Format: functional, HepG2
Settings: tested at 10 uM
Out of some 69,000 compounds screened, about 8,600 (12%) showed an effect of 50% or more. What follows is part of a selection rich in strong results, with near analogues and random picks from the rest.
Here the recorded INHIBITION is given for each entry.
READOUT LABEL: INHIBITION (%)

>>> value_reported("Cc1nc(CN2CCCC2c2ccsc2)nc2ccccc12 (centres undefined)")
53.8
>>> value_reported("Cc1cccn2cc(CC(=O)N(CCN(C)C)CC3CCCO3)nc12 (centres undefined)")
58.5
>>> value_reported("Clc1cccc(Cl)c1CNCCOc1ccccn1")
60
>>> value_reported("O=C(O)c1ccnc(-c2ccnc(NCCc3ccc(F)cc3)n2)c1")
8.74
>>> value_reported("CCOCC(=O)N1Cc2[nH]nc(COCC3CC3)c2C1")
2.4
>>> value_reported("NC(=O)c1ccc(NC(=O)Cn2cc(I)cn2)cc1")
40
>>> value_reported("O=S1(=O)NCC2(CCN(Cc3ccncc3)CC2)Oc2ncccc21")
44.1
>>> value_reported("Cc1cc(C)nc(N2CCCC(C)(c3[nH]ncc3C(=O)N(C)C)C2)n1 (centres undefined)")
53.1
>>> value_reported("Cc1cnc(Nc2nccnc2C2CCN(C)CC2)s1")
7.39
>>> value_reported("CN(C)C(=O)c1cn[nH]c1C1(C)CCN(c2ncccn2)CC1")
12.45
>>> value_reported("O=C(NCCCn1cncn1)c1ccc(-c2ccco2)[nH]c1=O")
56.3
>>> value_reported("Cc1ccc(NC2CCCN(CCc3ccccc3)C2)nn1 (centres undefined)")
-28
>>> value_reported("O=c1[nH][nH]cc1-c1ccnc(NCCc2cccc(O)c2)n1")
63.4
>>> value_reported("Cc1cccc(CN2CC[C@@H]3[C@@H](CO[C@H]3CNc3ncccn3)C2)n1")
18.4
>>> value_reported("CCn1ncc2c1C(COC)CN(c1ncc(F)cn1)C2 (centres undefined)")
-7.24
>>> value_reported("Fc1cccc(Cl)c1CNCCOc1ccccn1")
27
>>> value_reported("O=C(Cc1cccc(O)c1)NCCNc1nccc(C(F)(F)F)n1")
0.71
>>> value_reported("CSc1nc2ccsc2c(=O)n1CC(=O)N(C)c1ccccc1")
36.8
>>> value_reported("Cc1cc(NC2CCN(c3ccc(F)cc3)CC2)n2nc(C)cc2n1")
8.07
>>> value_reported("Cc1cc(N[C@H]2CCCN(Cc3ccccc3)C2)n2nc(C)cc2n1")
63.7
>>> value_reported("Cc1cccc(CN2Cc3[nH]nc(COCC4CC4)c3C2)n1")
48.2
>>> value_reported("CC(=O)NCCOc1c(Cl)cccc1Cl")
22
>>> value_reported("CC(=O)N1CCC(Cc2cnc(-c3c(C)nn(C)c3C)cn2)CC1")
-26.2
>>> value_reported("COc1nc2c(cc1C(=O)NCc1noc(Cc3cccs3)n1)CCC2")
24.7
>>> value_reported("Cc1ccc(C(=O)NCCCn2cncn2)c(=O)[nH]1")
4.41
>>> value_reported("Cc1cccc(NC(=O)C2CCCN2C(=O)c2ccco2)c1C (centres undefined)")
72.5
>>> value_reported("CCCN1CCCC2(CCN(Cc3noc(C4CCCC4)n3)C2)C1=O (centres undefined)")
-15.8
>>> value_reported("CCOC(=O)N1CCC(n2cc3[nH]cccc-3c2=O)CC1")
9.63
>>> value_reported("Cc1cc(N)n(-c2ccc3nnc(C)n3n2)n1")
37.5
>>> value_reported("COc1ccnc(N2CCN(Cc3nc(-c4ccoc4)no3)CC2)c1")
9.52
>>> value_reported("c1cc(CN2CCCC2c2noc(C3CC3)n2)on1 (centres undefined)")
37.4
>>> value_reported("c1ccc2sc(CN3CCCC3c3noc(C4CC4)n3)nc2c1 (centres undefined)")
78
>>> value_reported("O=C1CCC2(CCCO2)CCN1Cc1noc(C2CCCC2)n1 (centres undefined)")
26.7
>>> value_reported("Cc1ccc(NC(=O)Cn2cc(I)cn2)cc1")
23.2
>>> value_reported("COc1ccc(CN2CCC3(CC2)CCN(CC(C)C)C3=O)cc1")
13.2
>>> value_reported("CC(C)c1ccc(NC(=O)Cn2cc(I)cn2)cc1")
82.2
>>> value_reported("Cc1cc(=O)n2nc(Oc3cccc(C(N)=O)c3)sc2n1")
3.84
>>> value_reported("Cc1csc(CCNCc2cnc3c(c2)c(C)nn3C)n1")
-14.8
>>> value_reported("CCC1c2ccsc2CCN1C(=O)NCc1cccnc1N(C)C (centres undefined)")
16.97
>>> value_reported("C[C@H]1C[C@H]2CN(C(=O)CCc3ccccc3)CC[C@H]2O1")
-19
>>> value_reported("Cc1cn2c(n1)CCC(NC(=O)c1csc(C(C)C)n1)C2 (centres undefined)")
19.5
>>> value_reported("O=C(CC1Cn2ncnc2NC1=O)Nc1cccc(C(F)(F)F)c1 (centres undefined)")
54
>>> value_reported("O=C1N(CCO)CCCC12CCN(Cc1noc(C3CCCC3)n1)C2 (centres undefined)")
22.7
>>> value_reported("O=C(NCCCn1cncn1)c1ccc(-c2ccccc2)[nH]c1=O")
-12.9
>>> value_reported("O=C(Nc1cc(C(F)(F)F)c[nH]c1=O)N1CCOCC1")
-31.8
>>> value_reported("COc1nc2c(cc1C(=O)NCc1noc(-c3ccco3)n1)CCC2")
55
>>> value_reported("CNc1cc2c(nn1)CCN(C(=O)c1ccc(-n3cccn3)nc1)C2")
35.7
>>> value_reported("COC(=O)CC1CCN(C(=O)c2ccccc2-n2nnnc2C)CC1")
9.57
>>> value_reported("Cc1ccnn1CCC(=O)N1CCCC1c1cc2cccnc2[nH]1 (centres undefined)")
6.26
